- targetOrSystem: UniProtKB P55157
- Sequence (P55157 19-894, species assumed): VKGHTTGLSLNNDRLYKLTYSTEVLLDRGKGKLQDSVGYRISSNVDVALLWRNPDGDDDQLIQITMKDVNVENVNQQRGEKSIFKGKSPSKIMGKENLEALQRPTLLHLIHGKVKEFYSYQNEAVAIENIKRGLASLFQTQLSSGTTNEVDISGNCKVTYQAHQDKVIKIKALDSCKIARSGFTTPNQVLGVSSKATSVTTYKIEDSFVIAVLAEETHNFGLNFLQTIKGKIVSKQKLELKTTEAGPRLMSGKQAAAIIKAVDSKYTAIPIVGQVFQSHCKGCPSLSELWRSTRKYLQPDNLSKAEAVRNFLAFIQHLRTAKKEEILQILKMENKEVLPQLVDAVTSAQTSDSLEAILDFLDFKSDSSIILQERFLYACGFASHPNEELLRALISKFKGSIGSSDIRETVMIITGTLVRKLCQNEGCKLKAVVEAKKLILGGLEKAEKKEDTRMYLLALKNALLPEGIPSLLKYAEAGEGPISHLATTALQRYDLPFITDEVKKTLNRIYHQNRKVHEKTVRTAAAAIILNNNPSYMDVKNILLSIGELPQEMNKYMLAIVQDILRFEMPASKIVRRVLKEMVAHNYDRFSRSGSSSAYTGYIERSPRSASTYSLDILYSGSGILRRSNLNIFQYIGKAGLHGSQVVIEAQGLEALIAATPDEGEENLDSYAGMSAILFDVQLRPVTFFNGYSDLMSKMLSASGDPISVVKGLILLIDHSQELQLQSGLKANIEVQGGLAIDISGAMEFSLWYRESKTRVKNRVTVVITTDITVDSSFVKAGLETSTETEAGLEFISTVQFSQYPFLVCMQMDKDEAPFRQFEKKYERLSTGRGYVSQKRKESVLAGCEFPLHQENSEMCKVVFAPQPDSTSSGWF
- Sequence (P07237 18-508 partner, species assumed): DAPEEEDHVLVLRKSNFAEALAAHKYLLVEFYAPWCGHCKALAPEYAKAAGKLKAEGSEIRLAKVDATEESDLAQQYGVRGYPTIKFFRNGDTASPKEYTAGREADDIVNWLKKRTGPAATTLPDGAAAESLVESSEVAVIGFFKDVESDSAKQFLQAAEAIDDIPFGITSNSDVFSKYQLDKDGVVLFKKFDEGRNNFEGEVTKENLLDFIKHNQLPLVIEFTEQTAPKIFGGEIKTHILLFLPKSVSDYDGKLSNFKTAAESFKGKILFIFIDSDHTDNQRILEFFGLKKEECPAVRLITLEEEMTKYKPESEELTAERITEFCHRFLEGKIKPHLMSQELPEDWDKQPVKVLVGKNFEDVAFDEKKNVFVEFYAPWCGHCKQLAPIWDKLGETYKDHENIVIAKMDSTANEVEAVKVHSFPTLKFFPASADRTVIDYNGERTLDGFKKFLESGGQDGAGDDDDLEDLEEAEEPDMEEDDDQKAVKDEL
- experimentNotes: In vitro inhibition of MTP, triacylglycerol transfer assay with donor and acceptor liposomes (fluorescence)
- Type: biochemical
- protocolConditions: Table 6, assay of Example 3; read-out: IC50 Enzyme Assay
Structures can show the parent of a compound that is named as a salt.
reportedMetric: IC50 (nM)

Solved cases below.
[[record]]
compound = "CC(C)(C)c1ccc(-c2ccccc2C(=O)Nc2nc(-c3ccc(C(=O)N[C@H](C(=O)N4CCCC4)c4ccccc4)cc3)cs2)cc1 [Compound 36]"
measuredvalue = 5.7

[[record]]
compound = "CC(C)(C)c1ccc(-c2ccccc2C(=O)Nc2ccc3nc(C(=O)N[C@H](C(=O)N4CCC(F)(F)C4)c4ccccc4)sc3c2)cc1 [Compound 14]"
measuredvalue = 5.2

[[record]]
compound = "CN(Cc1ccc(F)cc1)C(=O)[C@@H](NC(=O)c1nc2ccc(NC(=O)c3ccccc3-c3nc(C(C)(C)C)cs3)cc2s1)c1ccccc1 [Compound 66]"
measuredvalue = 4.6

[[record]]
compound = "COc1cccc(C(=O)Nc2ccc3nc(C(=O)N[C@H](C(=O)N4CCCC4)c4ccccc4)sc3c2)c1-c1ccc(C(C)C)cc1 [Compound 84]"
measuredvalue = 3.6

[[record]]
compound = "CCCN(C)C(=O)[C@@H](NC(=O)C12CCC(CNC(=O)c3cccc(C)c3-c3ccc(C(C)(C)C)cc3)(CC1)CC2)c1ccccc1 [Compound 73]"
measuredvalue = 3.5


(a) CN(Cc1ccc(F)cc1)C(=O)[C@@H](NC(=O)C12CCC(CNC(=O)c3ccccc3-c3ccc(C(C)(C)C)cc3)(CC1)CC2)c1ccccc1 [Compound 10]
(b) Cc1csc2nc(-c3ccccc3C(=O)Nc3ccc4nc(C(=O)N[C@H](C(=O)N(C)Cc5ccc(F)cc5)c5ccccc5)sc4c3)cn12 [Compound 64]
(c) Cc1cccc(C(=O)Nc2ccc3nc(C(=O)N[C@H](C(=O)N(C)Cc4ccc(F)cc4)c4ccccc4)sc3c2)c1-c1ccc(C(C)(C)C)cc1 [Compound 41]
(d) CC(C)(C)c1ccc(-c2ccccc2C(=O)Nc2nc(-c3cccc(C(=O)N[C@H](C(=O)N4CCCC4)c4ccccc4)c3)cs2)cc1 [Compound 12]
(e) CN(Cc1ccc(F)cc1)C(=O)[C@@H](NC(=O)c1ccc2nc(NC(=O)c3ccccc3C3CCNC3)ccc2c1)c1ccccc1 (stereo partly drawn) [Compound 2, hydrochloride]
Task item: Sort ascending by IC50. As an answer, provide the labels arranged in the order called for.
Reply: d, c, a, b, e

(a) CC(C)(C)c1ccc(-c2ccccc2C(=O)NC23CCC(C(=O)N[C@H](C(=O)N4CCCC4)c4ccccc4)(CC2)CC3)cc1 [Compound 67]
(b) Cc1cccc(C(=O)Nc2nc(-c3cccc(C(=O)N[C@H](C(=O)N4CCCC4)c4ccccc4)c3)cs2)c1-c1ccc(C(C)(C)C)cc1 [Compound 42]
Task item: From the items above, decide which of a and b has the lower IC50 reading. Pick one; state its label.
Reply: a
(a: 2.4 nM, b: 4.5 nM)

====

- targetOrSystem: UniProt P55157
- experimentNotes: In vitro inhibition of MTP, triacylglycerol transfer assay with donor and acceptor liposomes (fluorescence)
- Type: biochemical
- protocolConditions: Tables 2-5, first symbol of the cell; read-out: IC50 Tri-acylglycerol (TAG) Transfer Assay (Example 3)
pIC50: −log10 of the molar value.
reportedMetric: pIC50

[[record]]
compound = "CC(C)(C)c1ccc(-c2ccccc2C(=O)Nc2ccc3nc(C(=O)N[C@H](C(=O)N4CCCC4)c4ccccc4)sc3c2)cc1 [drawing 126/drawing 123]"
measuredvalue = "> 7.00"

[[record]]
compound = "CN(Cc1ccc(F)cc1)C(=O)[C@@H](NC(=O)c1nc2ccc(NC(=O)c3ccccc3-c3ccc(C(C)(C)C)cc3)cc2s1)c1ccccc1 (single isomer, unassigned)"
measuredvalue = "> 7.00"

[[record]]
compound = "CN(Cc1ccc(F)cc1)C(=O)[C@@H](NC(=O)c1ccc2nc(NC(=O)c3ccccc3C3CCNCC3)ccc2c1)c1ccccc1"
measuredvalue = "< 6.00"

[[record]]
compound = "CN(Cc1ccc(F)cc1)C(=O)[C@@H](NC(=O)c1ccc2nc(NC(=O)c3ccccc3C3CCNC3)ccc2c1)c1ccccc1 (stereo partly drawn)"
measuredvalue = "6.00 to 7.00"


Task item: # lookup: pIC50 of `CN(Cc1ccc(F)cc1)C(=O)[C@@H](NC(=O)c1ccc2nc(NC(=O)c3ccccc3-c3cn4ccsc4n3)ccc2c1)c1ccccc1`
Reply: > 7.00

Task item: Query (compound): CN(Cc1ccc(F)cc1)C(=O)[C@@H](NC(=O)C12CCC(CNC(=O)c3ccccc3-c3ccc(C(C)(C)C)cc3)(CC1)CC2)c1ccccc1 [drawing 120/drawing 118] ; field requested: pIC50
Reply: > 7.00
